The values you see were collected from PubChem BioAssay.

# z-score annotations
experiment: compound effects on multiple myeloma cell viability – MM1S, calcein-AM fluorescence, 48 h, basal, profiling panel (AID 1165); details: higher = more signal;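 further: viability of MM1S multiple myeloma cells under basal unstimulated conditions; test concentration not given here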

molecule | z-score
CCOC(=O)C[C@H]1[C@H](OC(=O)c2cc3ccccc3oc2=O)[C@@H](NC(=O)c2ccc3ccccc3n2)c2cc(OCCCO)ccc2N1C(=O)Cc1ccc(OC)cc1 | 0.765
CCOC(=O)C[C@H]1[C@H](OC(=O)Cc2ccc3c(c2)OCO3)[C@@H](NC(=O)C2CCCCC2)c2cc(OCCCO)ccc2N1C(=O)c1ccccc1 | 0.567
CN(C)C(=O)[C@]1(CCC(=O)OC(C)(C)C)N=C(c2ccc(OCCCO)cc2)O[C@@H]1c1ccccc1CN=[N+]=[N-] | 0.545
CCCC=C(CCC)[C@@H](NS(=O)(=O)CC12CCC(CC1=O)C2(C)C)c1ccc(C(=O)OC)cc1 (some centres not stated) | 0.295
COc1ccc([Si](C)(C)[C@H]2[C@H](CC(=O)N3CCC[C@H]3CO)O[C@@]3(C(=O)N(Cc4ccc(N5CCOC5=O)cc4)c4ccccc43)[C@@H]2C)cc1 | -2.27
C=C(/C(=C/C[C@H](OC(C)=O)c1ccc(CO)o1)c1cnc2ccccc2c1)C(C)C | -1.36
C#Cc1cc2ccccc2oc1=O | -0.932
